The origin of these recorded values is patent US10639284B2.

# pIC50 annotations
Molecular target: human PD-L1 / Human PD-1 (Homo sapiens (Human))
Sequence (Q9NZQ7 19-239): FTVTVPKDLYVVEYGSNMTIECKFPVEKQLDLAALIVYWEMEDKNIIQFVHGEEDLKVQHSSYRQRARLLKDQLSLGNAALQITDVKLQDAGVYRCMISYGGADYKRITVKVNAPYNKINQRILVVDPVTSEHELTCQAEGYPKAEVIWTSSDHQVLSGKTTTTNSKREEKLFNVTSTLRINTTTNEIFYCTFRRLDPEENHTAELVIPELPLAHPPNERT
Assay: Enzyme-Linked Immunosorbent Assay (ELISA), PD-1/PD-L1 binding
Conditions: Table 2; plate-coated human PD-L1, biotinylated human PD-1; read-out: ELISA IC50
pIC50: −log10 of the molar value.

For orientation, consider the following solved cases.
MOLECULE: CCC(O)C(NCc1cc(Cl)c(O[C@H]2CCc3c(-c4ccccc4F)cccc32)cc1OCc1cncc(C#N)c1)C(=O)O (stereo partly shown) [Example 2.125]
RESULT: > 7.00

MOLECULE: N#Cc1cncc(COc2cc(O[C@H]3CCc4c(-c5ccccc5F)cccc43)c(Cl)cc2CNCC(=O)NO)c1 [Example 2.151]
RESULT: 4.70 to 6.30

MOLECULE: COc1ccc(-c2cccc3c2CC[C@@H]3Oc2cc(OCc3cncc(C#N)c3)c(CN[C@@H](CO)C(=O)O)cc2Cl)cc1C [Example 2.023]
RESULT: 6.30 to 7.00

What does the record list as pIC50 for N#Cc1cncc(COc2cc(O[C@@H]3CCc4c(-c5ccccc5)cccc43)c(Cl)cc2CNC[C@@H](O)CC(=O)O)c1 [Example 1.008] ? > 7.00

Looking for the measured pIC50 of N#Cc1cncc(COc2cc(O[C@@H]3c4cccc(-c5ccccc5F)c4C[C@H]3F)c(Cl)cc2CN2CCC(O)CC2)c1 [Example 2.148] , can you help? 4.70 to 6.30

pIC50 for N#Cc1cncc(COc2cc(O[C@H]3CCc4c(-c5ccccc5F)cccc43)c(Cl)cc2CNC(=O)CCCC(=O)O)c1 [Example 2.173] ? 4.70 to 6.30

Entry under review: C[C@H](NCc1cc(Cl)c(O[C@H]2CCc3c(-c4ccccc4F)cccc32)cc1OCc1cncc(C#N)c1)C(N)=O [Example 2.168] . Reported pIC50? 6.30 to 7.00

###

Biological target: human PD-L1 / Human PD-1 (Homo sapiens (Human))
Experiment: Enzyme-Linked Immunosorbent Assay (ELISA), PD-1/PD-L1 binding
Details: Table 3; plate-coated human PD-L1, biotinylated human PD-1; read-out: ELISA IC50
pIC50: −log10 of the molar value.
READOUT_LABEL: pIC50

Example entries and their recorded answers appear below.
COMPOUND: N#Cc1cncc(COc2cc(O[C@H]3CCc4c(-c5ccccc5F)cccc43)c(Cl)cc2CN[C@@H](CO)C(=O)O)c1
pIC50: > 7.00
--
COMPOUND: N#Cc1cncc(COc2cc(O[C@H]3CCc4c(-c5ccccc5F)cccc43)c(Cl)cc2CN[C@@H](CO)C(=O)NCC(=O)O)c1
pIC50: > 7.00
--
COMPOUND: Cc1cncc(COc2cc(O[C@H]3CCc4c(-c5ccc6c(c5F)OCCO6)cccc43)c(Cl)cc2CN[C@@H](CO)C(=O)O)c1
pIC50: > 7.00

For CS(=O)(=O)c1cncc(COc2cc(O[C@H]3CCc4c(-c5ccc6c(c5F)OCCO6)cccc43)c(Cl)cc2CN[C@@H](CO)C(=O)O)c1 , what is its reported pIC50? > 7.00

Reported pIC50 for N#Cc1cncc(COc2cc(O[C@H]3CCc4c(-c5ccccc5F)cccc43)c(Cl)cc2CNC2CCOCC2)c1 : what is it? > 7.00

Which pIC50 reading was recorded for the compound COc1cccc(-c2cccc3c2CC[C@@H]3Oc2cc(OCc3cncc(C#N)c3)c(CN3CCC(O)C(CO)C3)cc2Cl)c1Cl (stereo partly drawn) ? 6.30 to 7.00

So what does the record say about pIC50 for N#Cc1cncc(COc2cc(O[C@H]3CCc4c(-c5ccccc5F)cccc43)c(Cl)cc2CNCc2ccc(C(N)=O)cc2)c1 ? 6.30 to 7.00

Please look up its pIC50: N#Cc1cncc(COc2cc(O[C@H]3CCc4c(-c5ccccc5F)cccc43)c(Cl)cc2CN[C@@H]2CCOC[C@H]2O)c1 > 7.00

Using the record for N#Cc1cncc(COc2cc(O[C@H]3CCc4c(-c5ccccc5F)cccc43)c(Cl)cc2CN[C@@H](Cc2c[nH]cn2)C(=O)NCC(=O)NCC(=O)O)c1 , report its pIC50. 4.70 to 6.30
